# EXPERIMENTAL CONTEXT: acidic group
Reported values of pKa for individual entries

MOLECULE: O=C(O)CCCCC1CCSS1 (stereo not given)
pKa: 4.82
//
MOLECULE: Cc1cc(O)c(=O)ccc1Br
pKa: 6.6
//
MOLECULE: CC(=O)[n+]1ccc(C#N)cc1
pKa: 1.98
//
MOLECULE: CC(C)=CC[C@@H]1C(=O)C(C(=O)CC(C)C)=C(O)[C@H]1O
pKa: 2.35
//
MOLECULE: CC(=O)C(C)C(C)(C)C(=O)O (stereo not given)
pKa: 5.79

* * *

Reported values of pKa for individual entries
# EXPERIMENTAL CONTEXT: acidic group
READOUT: pKa

MOLECULE: O=[Se](O)c1ccccc1
EXPERIMENTAL RESULT: 4.79

MOLECULE: O=C(O)CCc1ccsc1
EXPERIMENTAL RESULT: 4.45

MOLECULE: CC(S)C(=O)O (configuration not stated)
EXPERIMENTAL RESULT: 3.35

MOLECULE: O=C1[N-]C(=S)NC(=O)C1C1C=CCCC1 (configuration not stated)
EXPERIMENTAL RESULT: 11.3

MOLECULE: CC[NH+]1CCC[C@@H]1CNC(=O)c1c(O)c(Cl)cc(Cl)c1OC
EXPERIMENTAL RESULT: 5.75

MOLECULE: CC1(C)[C@H]2CC[C@@]1(C)[C@@H](O)[C@@H]2C(=O)O
EXPERIMENTAL RESULT: 2.74

MOLECULE: O=COO
EXPERIMENTAL RESULT: 7.1

MOLECULE: O=[Se](O)c1ccc2ccccc2c1
EXPERIMENTAL RESULT: 4.67

MOLECULE: O=C([O-])C[NH2+]CCc1nnn[nH]1
EXPERIMENTAL RESULT: 4.32

MOLECULE: COc1ccc(NC(=S)c2cccc(Br)c2)cc1
EXPERIMENTAL RESULT: 11

MOLECULE: Cc1ccc(C(O)C(C(=O)O)c2ccc(C3CCCCC3)cc2)cc1 (configuration not stated)
EXPERIMENTAL RESULT: 4.18

MOLECULE: O=c1oc2cc(O)ccc2cc1-c1nc2ccccc2s1
EXPERIMENTAL RESULT: 7.02

MOLECULE: Cc1cc(S(=O)(=O)Nc2nccs2)ccc1N
EXPERIMENTAL RESULT: 7

MOLECULE: O=S(=O)(Nc1ccc(Cl)cc1)c1ccccc1
EXPERIMENTAL RESULT: 7.91

MOLECULE: CC(C)C1CC(CC(=O)O)[NH2+]C1C(=O)O (configuration not stated)
EXPERIMENTAL RESULT: 2.1

MOLECULE: Sc1nc2cc3ccccc3cc2[nH]1
EXPERIMENTAL RESULT: 9.84

MOLECULE: CC(=O)/C(=N/O)c1ccccc1
EXPERIMENTAL RESULT: 8.85
